Field: percent TC-PTP degradation at 1 µM. Provide a value for each of the molecules that follow.
Molecular target: TC-PTP (Homo sapiens)
Sequence (P17706 whole entry): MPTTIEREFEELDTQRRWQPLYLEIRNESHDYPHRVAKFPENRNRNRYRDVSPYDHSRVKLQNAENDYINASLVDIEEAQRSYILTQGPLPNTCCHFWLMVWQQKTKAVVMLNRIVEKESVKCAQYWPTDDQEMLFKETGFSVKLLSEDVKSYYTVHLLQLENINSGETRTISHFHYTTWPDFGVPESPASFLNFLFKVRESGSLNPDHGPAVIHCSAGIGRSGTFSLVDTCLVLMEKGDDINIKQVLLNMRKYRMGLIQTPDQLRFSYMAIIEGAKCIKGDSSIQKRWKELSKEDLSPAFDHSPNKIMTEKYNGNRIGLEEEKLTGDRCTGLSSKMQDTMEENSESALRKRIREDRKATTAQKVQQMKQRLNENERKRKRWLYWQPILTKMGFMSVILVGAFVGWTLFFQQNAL
Test: Degradation assay in HEK293 cells (immunoblotting)
Type: cell-based
Design: Degradation assay was conducted in HEK293 cells with 1 μM degrader and 24 hours incubation; endogenous in cells; host or cells: HEK293
Conditions: 1 μM degrader, 24 hours, read-out: % Protein Degradation TC-PTP
*1 amine or outer side, *2 acyl side, *3 side chain or, on linkers, in order; H or OH if unused. Where a SMILES comes first, the peptide text is derived from it. [ ]: non-standard residue; d: D form. The star is where a group is joined. NHBn(4-(4-Me-thiazol-5-yl)) = Cc1ncsc1-c1ccc(CN*)cc1; F2Pmp = N[C@@H](Cc1ccc(C(F)(F)P(=O)(O)O)cc1)C(=O)O; Phenylacetyl(4-OH,3-OMe) = COc1cc(CC(=O)*)ccc1O; Benzoyl(3-Br,4-Me) = Cc1ccc(C(=O)*)cc1Br; NH(CH2)9CO = O=C(CCCCCCCCCN[*:1])[*:2]; Hyp = O=C(O)[C@@H]1C[C@@H](O)CN1; dHyp = O=C(O)[C@H]1C[C@H](O)CN1; dTle = CC(C)(C)[C@@H](N)C(=O)O; Tle = CC(C)(C)[C@H](N)C(=O)O; 12Ado = NCCCCCCCCCCCC(=O)O; Aoc = NCCCCCCCC(=O)O; Ahp = NCCCCCCC(=O)O; Ahx = NCCCCCC(=O)O; Ava = NCCCCC(=O)O
Answer in %, number only, no unit symbol.

Req: Determine reported percent TC-PTP degradation at 1 µM for COc1cc(CC(=O)N[C@@H](Cc2ccccc2)C(=O)N[C@@H](Cc2ccc(C(F)(F)P(=O)(O)O)cc2)C(=O)N[C@@H](CCCCNC(=O)c2ccc(C)c(Br)c2)C(=O)NCCCCCCCC(=O)N[C@@H](C(=O)N2C[C@@H](O)C[C@@H]2C(=O)NCc2ccc(-c3scnc3C)cc2)C(C)(C)C)ccc1O [Compound 83] ({Phenylacetyl(4-OH,3-OMe)}-F[F2Pmp]K(Benzoyl(3-Br,4-Me))[Aoc][dTle][dHyp]-{NHBn(4-(4-Me-thiazol-5-yl))}) ; test system: TC-PTP (Homo sapiens).
Resp: 66

Req: Under TC-PTP (Homo sapiens), report percent TC-PTP degradation at 1 µM for COc1cc(CC(=O)N[C@@H](Cc2ccccc2)C(=O)N[C@@H](Cc2ccc(C(F)(F)P(=O)(O)O)cc2)C(=O)N[C@@H](CCCCNC(=O)c2ccc(C)c(Br)c2)C(=O)NCCCCCCCCCCCC(=O)N[C@H](C(=O)N2C[C@H](O)C[C@H]2C(=O)NCc2ccc(-c3scnc3C)cc2)C(C)(C)C)ccc1O [Compound 18] ({Phenylacetyl(4-OH,3-OMe)}-F[F2Pmp]K(Benzoyl(3-Br,4-Me))[12Ado][Tle][Hyp]-{NHBn(4-(4-Me-thiazol-5-yl))})
Resp: 30

Req: Give percent TC-PTP degradation at 1 µM for COc1cc(CC(=O)N[C@@H](Cc2ccccc2)C(=O)N[C@@H](Cc2ccc(C(F)(F)P(=O)(O)O)cc2)C(=O)N[C@@H](CCCCNC(=O)c2ccc(C)c(Br)c2)C(=O)NCCCCCC(=O)N[C@H](C(=O)N2C[C@H](O)C[C@H]2C(=O)NCc2ccc(-c3scnc3C)cc2)C(C)(C)C)ccc1O [Compound 8] ({Phenylacetyl(4-OH,3-OMe)}-F[F2Pmp]K(Benzoyl(3-Br,4-Me))[Ahx][Tle][Hyp]-{NHBn(4-(4-Me-thiazol-5-yl))}) tested on TC-PTP (Homo sapiens).
Resp: 83

Req: Fill: percent TC-PTP degradation at 1 µM (TC-PTP (Homo sapiens)) for this molecule COc1cc(CC(=O)N[C@@H](Cc2ccccc2)C(=O)N[C@@H](Cc2ccc(C(F)(F)P(=O)(O)O)cc2)C(=O)N[C@@H](CCCCNC(=O)c2ccc(C)c(Br)c2)C(=O)NCCCCC(=O)N[C@@H](C(=O)N2C[C@@H](O)C[C@@H]2C(=O)NCc2ccc(-c3scnc3C)cc2)C(C)(C)C)ccc1O [Compound 6] ({Phenylacetyl(4-OH,3-OMe)}-F[F2Pmp]K(Benzoyl(3-Br,4-Me))[Ava][dTle][dHyp]-{NHBn(4-(4-Me-thiazol-5-yl))})
Resp: 58

Req: Please tell me the measured percent TC-PTP degradation at 1 µM for COc1cc(CC(=O)N[C@@H](Cc2ccccc2)C(=O)N[C@@H](Cc2ccc(C(F)(F)P(=O)(O)O)cc2)C(=O)N[C@@H](CCCCNC(=O)c2ccc(C)c(Br)c2)C(=O)NCCCCCCCCCC(=O)N[C@H](C(=O)N2C[C@H](O)C[C@H]2C(=O)NCc2ccc(-c3scnc3C)cc2)C(C)(C)C)ccc1O [Compound 14] ({Phenylacetyl(4-OH,3-OMe)}-F[F2Pmp]K(Benzoyl(3-Br,4-Me))[NH(CH2)9CO][Tle][Hyp]-{NHBn(4-(4-Me-thiazol-5-yl))}) ; system: TC-PTP (Homo sapiens).
Resp: 62

Req: Enter percent TC-PTP degradation at 1 µM (test system TC-PTP (Homo sapiens)) for COc1cc(CC(=O)N[C@@H](Cc2ccccc2)C(=O)N[C@@H](Cc2ccc(C(F)(F)P(=O)(O)O)cc2)C(=O)N[C@@H](CCCCNC(=O)c2ccc(C)c(Br)c2)C(=O)NCCCCCCC(=O)N[C@@H](C(=O)N2C[C@@H](O)C[C@@H]2C(=O)NCc2ccc(-c3scnc3C)cc2)C(C)(C)C)ccc1O [Compound 10] ({Phenylacetyl(4-OH,3-OMe)}-F[F2Pmp]K(Benzoyl(3-Br,4-Me))[Ahp][dTle][dHyp]-{NHBn(4-(4-Me-thiazol-5-yl))})
Resp: 69

Req: Write percent TC-PTP degradation at 1 µM of COc1cc(CC(=O)N[C@@H](Cc2ccccc2)C(=O)N[C@@H](Cc2ccc(C(F)(F)P(=O)(O)O)cc2)C(=O)N[C@@H](CCCCNC(=O)c2ccc(C)c(Br)c2)C(N)=O)ccc1O [Example 7] ; system used: TC-PTP (Homo sapiens)
Resp: 0
